Test system: HCI-016 (organoid from a triple-negative breast cancer xenograft)
Test: CTG-3D luminescence at 96 h relative to day-0 seeding control (ratio to day 0); higher = more growth / less cytotoxicity; PDxO 3D drug screen, 96 h, CTG-3D normalised to day-0 seeding control.
Details: 625 fM; days in culture: 190
endpoint_label: CTG-3D luminescence at 96 h

CC[C@H](NC(=O)[C@H](C)NC)C(=O)N1C[C@@H](O)C[C@H]1Cc1c(-c2[nH]c3cc(F)ccc3c2C[C@@H]2C[C@H](O)CN2C(=O)[C@H](CC)NC(=O)[C@H](C)NC)[nH]c2cc(F)ccc12	0.99
O=C(O)C1(C(=O)O)CCC1.[NH2-].[NH2-].[Pt+2]	1.18

Switching to the query record.
Kindly indicate its recorded CTG-3D luminescence at 96 h. Item: O=C(/C=C/c1cccnc1)NCCCCC1CCN(C(=O)c2ccccc2)CC1 1.08
